Experiment: chemical genetic growth profiling, strain panel (AID 1159580);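 further: tested at 20 µM; growth read once vehicle control cultures reached saturation at 30 °C; 1 = growth at the plate median or of vehicle wells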
Conditions: S. cerevisiae deletion strains, growth OD, locus YGL078C, strain dbp3, stronger effect = lower value
Screen size: about 5,500 compounds; about 2,000 (36%) were called active. About 18% were inconclusive and are not listed. The list shows a part of the results.
Listed below: normalized growth values for each entry.
Lab note: record just the number, no unit beside it.

COc1c2ccoc2nc2c(OC)c(OCC(O)C(C)(C)O)ccc12 (stereo not drawn) | 0.983
CN1CCN(C2=Nc3ccccc3Oc3ccc(Cl)cc32)CC1 | 1
Clc1ccc2c(c1)C(N1CCNCC1)=Nc1ccccc1O2 | 0.968

Answer with reported normalized growth of CN(C)C(=O)Nc1ccc(Cl)c(Cl)c1
1.01

Answer with reported normalized growth of CCCCSP(=O)(SCCCC)SCCCC
1.01

Answer with reported normalized growth of CC(=O)N=c1sc(S(N)(=O)=O)nn1C
1

Answer with reported normalized growth of CCC(=O)Nc1ccc(Cl)c(Cl)c1
1.01

Answer with reported normalized growth of CNC(=O)Oc1ccc2c(c1)[C@]1(C)CCN(C)[C@@H]1N2C
1.01

Answer with reported normalized growth of CC(=O)Nc1nnc(S(N)(=O)=O)s1
1

Answer with reported normalized growth of CNCCCN1c2ccccc2CCc2ccccc21
0.994

Answer with reported normalized growth of CC(CN(C)C)CN1c2ccccc2Sc2ccccc21 (stereo not drawn)
0.986

Answer with reported normalized growth of O=C(O)c1ccccc1C(=O)Nc1ccc(S(=O)(=O)Nc2nccs2)cc1
0.994

Answer with reported normalized growth of CC(=O)Nc1ccccc1
0.99

* * *

Experiment: chemical genetic growth profiling, strain panel (AID 1159580)
Conditions: S. cerevisiae deletion strains, growth OD, locus YOR061W, strain CKA2, stronger effect = lower value
Screen size: about 5,500 compounds; about 2,000 (36%) were called active. Another 18% or so got no clear call; they are omitted. This is one part of the list.
Binary call on normalized growth with cut-off 1: strictly below means Y, and equality or higher means N.

// known answers, use as guide
N#C/C(=C\c1cccc(O)c1)C(=O)O | Y
CC(C)CCCC(C)C1CCC2C3CC[C@H]4CCCC[C@]4(C)C3CC[C@]12C (stereo not given in full) | Y

Determine if O=C(Nc1cccc2ccccc12)c1ccccc1O shows normalized growth strictly lower than 1.
Y

Determine if COC(=O)CCC(C)[C@H]1CCC2C3C(C[C@H](O)[C@@]21C)[C@@]1(C)CC[C@@H](O)C[C@H]1C[C@H]3O (stereo not given in full) shows normalized growth strictly lower than 1.
N

Determine if CC(CCC(=O)O)[C@H]1CCC2C3CC[C@@H]4C[C@H](O)CC[C@]4(C)C3CC[C@@]21C (stereo not given in full) shows normalized growth strictly lower than 1.
Y

* * *

Assay: chemical genetic growth profiling, strain panel (AID 1159580)
Conditions: S. cerevisiae deletion strains, growth OD, locus YHR079C, strain IRE1 (second series)
The whole screen tested about 5,500 compounds, of which about 2,000 (36%) were called active. Inconclusive results (about 18%) are left out. No stated cut-off is given here; in the data, active means normalized growth mostly below about 0.91 (no sharp cut-off); inconclusive means no clear call, values can overlap the other calls; inactive means mostly above about 0.92. This is one part of the list.
Please reply with one of these outcomes: active, inactive

In this assay, the call recorded for CCCCCC1C(=O)CCC1CC(=O)O (centres undefined) was what?
inactive

In this assay, the call recorded for CC(CN1c2ccccc2Sc2ccccc21)N(C)C (centres undefined) was what?
inactive

In this assay, the call recorded for CC(=O)OCC(=O)[C@@]1(O)[C@H](OC(C)=O)CC2C3CCC4=CC(=O)C=C[C@]4(C)[C@@]3(F)[C@@H](O)C[C@@]21C (some centres undefined) was what?
inactive

In this assay, the call recorded for CCCCCC1C(=O)CCC1CC(=O)OC (centres undefined) was what?
inactive

In this assay, the call recorded for CC(CN1c2ccccc2Sc2cccnc21)N(C)C (centres undefined) was what?
inactive

In this assay, the call recorded for O=c1cc(-c2cc(O)c(O)c(O)c2)oc2cc(O)cc(O)c12 was what?
inactive

In this assay, the call recorded for COc1cc2c(cc1-c1cc3cc4ccoc4cc3oc1=O)OCO2 was what?
inactive

* * *

Experiment: chemical genetic growth profiling, strain panel (AID 1159580)
Details: S. cerevisiae deletion strains, growth OD, locus YKL085W, strain MDH1 (second series), stronger effect = lower value
Hit rate of the full screen: of about 5,500 compounds, about 2,000 (36%) were called active. About 18% were inconclusive and are not listed. The list shows a part of the results.
measured.metric: normalized growth
Lab note: record just the number, no unit beside it.

Below are worked cases with known answers.
CNC(=O)Oc1ccc2c(c1)[C@]1(C)CCN(C)[C@@H]1N2C | 0.997
CC(CCC(=O)O)[C@H]1CCC2C3CC[C@@H]4C[C@H](O)CC[C@]4(C)C3CC[C@@]21C (some centres undefined) | 1.03
O=c1cc(-c2ccccc2)oc2c(O)c(O)ccc12 | 0.986
CC(CN(C)C)CN1c2ccccc2Sc2ccccc21 (centres undefined) | 1.01
COc1cc(OC)c(OC)cc1C=O | 0.988

The record that follows has no normalized growth shown yet.
Answer with reported normalized growth of Cc1nc2ccccn2c(=O)c1CCN1CCC(C(=O)c2ccc(F)cc2)CC1
1.03

* * *

Assay: chemical genetic growth profiling, strain panel (AID 1159580);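 further: tested at 20 µM; growth read once vehicle control cultures reached saturation at 30 °C; 1 = growth at the plate median or of vehicle wells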
Conditions: S. cerevisiae deletion strains, growth OD, locus YGL078C, strain dbp3
Screen size: about 5,500 compounds; about 2,000 (36%) were called active. Another 18% or so got no clear call; they are omitted. Rule as the data show it: active = normalized growth mostly below about 0.91 (no sharp cut-off); inconclusive = no clear call, values can overlap the other calls; inactive = mostly above about 0.92. The list shows a part of the results.
Please reply with one of these outcomes: Y (active), N (inactive)

// known answers, use as guide
CCN(CC)CCOC(=O)C(c1ccccc1)c1ccccc1 | N
NC(N)=NCCCC(NC(=O)C(N)Cc1ccc(O)cc1)C(=O)O (stereo unspecified) | N
Cc1cc(O)c(C=O)c2c1C(=O)Oc1c(C)c(O)c3c(c1O2)C(O)OC3=O (stereo unspecified) | N
COc1cc(C)c(C(=O)Oc2cc(C)c(C(=O)O)c(O)c2C)c(OC)c1C | N
N[C@@H](Cc1cc(I)c(Oc2ccc(O)c(I)c2)c(I)c1)C(=O)O | N
N[C@H](Cc1cc(I)c(Oc2ccc(O)c(I)c2)c(I)c1)C(=O)O | N
N[C@@H](Cc1cc(I)c(Oc2cc(I)c(O)c(I)c2)c(I)c1)C(=O)O | N
C[C@@H]1CC2C3C[C@H](F)C4=CC(=O)C=C[C@]4(C)[C@@]3(F)[C@@H](O)C[C@]2(C)[C@@]1(O)C(=O)COC(=O)C(C)(C)C (stereo partly specified) | N

In this assay, the call recorded for CCCC(C(=O)OCCN(CC)CC)(c1ccccc1)c1ccccc1 was what?
N

In this assay, the call recorded for Nc1ccn(C2O[C@H](CO)[C@@H](O)[C@H]2O)c(=O)n1 (stereo partly specified) was what?
N

* * *

Assay: chemical genetic growth profiling, strain panel (AID 1159580);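 further: tested at 20 µM; growth read once vehicle control cultures reached saturation at 30 °C; 1 = growth at the plate median or of vehicle wells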
Details: S. cerevisiae deletion strains, growth OD, locus YNL067W, strain RPL9B, stronger effect = lower value
The campaign covered roughly 5,500 compounds. About 2,000 (36%) were called active. About 18% were inconclusive and are not listed. Some of the results follow.
measured.metric: normalized growth

Below are worked cases with known answers.
O=C(O)Cc1cc(I)c(Oc2cc(I)c(O)c(I)c2)c(I)c1 | 0.969 (inactive)
S=P(N1CC1)(N1CC1)N1CC1 | 1.01 (inactive)
CC(CCC(=O)O)[C@H]1CCC2C3CC[C@@H]4CCCC[C@]4(C)C3CC[C@@]21C (stereo not given in full) | 1.02 (inactive)
COc1cc(S(C)=O)ccc1-c1nc2ncccc2[nH]1 (stereo not given) | 1.01 (inactive)
COc1cc([C@@H]2c3cc4c(cc3[C@H](OC(C)=O)[C@H]3COC(=O)[C@@H]23)OCO4)cc(OC)c1OC | 1.02 (inactive)

Answer with reported normalized growth of CC1(C)C(O)CC(O)C2(C)C1CC(O)C1(C)C2CCC2(C)C(c3ccoc3)OC(=O)C3OC321 (stereo not given)
1.02 (inactive)

Answer with reported normalized growth of C[C@@H](N)[C@@H](O)c1ccccc1
0.975 (inactive)

Answer with reported normalized growth of C[C@H](N)[C@H](O)c1ccccc1
1 (inactive)

Answer with reported normalized growth of CC(C)CCCC(C)C1CCC2C3CC[C@H]4CCCC[C@]4(C)C3CC[C@]12C (stereo not given in full)
0.953 (inactive)

Answer with reported normalized growth of CC(CCC(=O)O)[C@H]1CCC2C3C(C[C@H](O)[C@@]21C)[C@@]1(C)CC[C@@H](O)C[C@H]1C[C@H]3O (stereo not given in full)
1.02 (inactive)

* * *

Listed below: normalized growth values for each entry.
Assay: chemical genetic growth profiling, strain panel (AID 1159580);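 further: tested at 20 µM; growth read once vehicle control cultures reached saturation at 30 °C; 1 = growth at the plate median or of vehicle wells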
Settings: S. cerevisiae deletion strains, growth OD, locus YHR030C, strain SLT2, stronger effect = lower value
About 2,000 (36%) of roughly 5,500 compounds were called active. Another 18% or so got no clear call; they are omitted. The list shows a part of the results.
Lab note: record just the number, no unit beside it.

Below are worked cases with known answers.
Cc1ccc(S(=O)(=O)Nc2ccc(Oc3ccc(F)cc3)cc2)cc1 | 0.767
NNC(=O)c1ccccc1O | 1.03
Cc1ccc(S(=O)(=O)Nc2ccc(C)c([N+](=O)[O-])c2)cc1 | 0.989
O=S(=O)(Nc1ccc(Oc2ccc(OC(F)(F)F)cc2)cc1)c1cccc(Cl)c1 | 0.562

Answer with reported normalized growth of Cc1cc(NS(=O)(=O)c2ccc(NS(=O)(=O)c3cc(C)c(Cl)cc3C)cc2)no1
1.08

Answer with reported normalized growth of N#Cc1ccc(NC(=O)Nc2cccc3ccccc23)cc1
0.938

Answer with reported normalized growth of C[C@@H]1O[C@@H](O[C@H]2C[C@@H](O)[C@]3(CO)C4C(CC[C@]3(O)C2)[C@@]2(O)CC[C@H](C3=CC(=O)OC3)[C@@]2(C)C[C@H]4O)[C@H](O)[C@H](O)[C@H]1O (stereo partly specified)
1.02

Answer with reported normalized growth of CCc1ccccc1NC(C)=O
1.08

Reference for the values: PubChem BioAssay AID1159580
